test system: LOX IMVI melanoma; experiment: NCI tumour cell line growth inhibition, 48 h; in the data active means GI50 below about 0.43 µM; inactive means the rest
Possible outcomes: active, inactive

Molecule: CS(=O)(=O)c1ccc(Cl)c([N+](=O)[O-])c1
Measured On: LOX IMVI melanoma
Class: inactive
--
Molecule: CC[O-].CC[O-].O=C1C(=C([O-])c2ccccc2)C(=O)c2ccccc21.O=C1C(=C([O-])c2ccccc2)C(=O)c2ccccc21.[Ti+4]
Measured On: LOX IMVI melanoma
Class: inactive
--
Molecule: CNC(=O)Nc1ccc(-c2nc(N3CCOCC3)nc3c2cnn3C2CCOCC2)cc1
Measured On: LOX IMVI melanoma
Class: active
--
Molecule: COc1cc(/C=C2\CN(C)CC3=C2Nc2nc(SC)[nH]c(=O)c2C3c2cc(OC)c(OC)c(OC)c2)cc(OC)c1OC (configuration not stated)
Measured On: LOX IMVI melanoma
Class: inactive
--
Molecule: CC(C)N(C(C)C)[PH+]1O[PH+](N(C(C)C)C(C)C)O[PH+](N(C(C)C)C(C)C)O[PH+](N(C(C)C)C(C)C)O[PH+](N(C(C)C)C(C)C)O1.[C-]#[O+].[C-]#[O+].[C-]#[O+].[C-]#[O+].[C-]#[O+].[C-]#[O+].[C-]#[O+].[Cr].[Cr] (configuration not stated)
Measured On: LOX IMVI melanoma
Class: inactive
--
Molecule: N/C(=N\OC(=O)c1ccccc1)C(C(=O)NOC(=O)c1ccccc1)C1CCCCC1 (configuration not stated)
Measured On: LOX IMVI melanoma
Class: active
--
Molecule: CC[C@H](C)[C@H](NC(=O)c1cnccn1)C(=O)N(C)[C@H](C[C@@H](OC(C)=O)c1nc(C(=O)N[C@@H](Cc2ccccc2)C[C@H](C)C(=O)OC)cs1)C(C)C
Measured On: LOX IMVI melanoma
Class: inactive

----------
Recorded TGI by entry
tested on: OVCAR-5 ovarian; assay: NCI tumour cell line growth inhibition, 48 h
Measurement Kind: TGI (µM)

Compound: CN(C)CCCNc1cc(O)c2c(c1O)C(=O)c1ccccc1C2=O
Measured On: OVCAR-5 ovarian
Inequality Symbol: =
Reported Result: 33.7
//
Compound: CNC(=O)Nc1ccc(-c2nc(N3CCOCC3)nc3c2cnn3C2CCOCC2)cc1
Measured On: OVCAR-5 ovarian
Inequality Symbol: =
Reported Result: 1.36
//
Compound: c1c(N2CCOCC2)ssc1=[N+]1CCOCC1
Measured On: OVCAR-5 ovarian
Inequality Symbol: >
Reported Result: 100
//
Compound: O=C(c1ccccc1)c1c(CC(O)c2cccnc2)n(C(=O)c2ccccc2)c2ccccc12 (stereo not given)
Measured On: OVCAR-5 ovarian
Inequality Symbol: =
Reported Result: 37.6
//
Compound: CN(C)CCNc1c([N+](=O)[O-])sc2ccc(Cl)cc12
Measured On: OVCAR-5 ovarian
Inequality Symbol: >
Reported Result: 100
//
Compound: Nc1c(S(N)(=O)=O)cc(S(N)(=O)=O)cc1S(N)(=O)=O
Measured On: OVCAR-5 ovarian
Inequality Symbol: >
Reported Result: 100
//
Compound: C[C@H](c1ccccc1)N1C(=O)[C@@H](OCc2ccccc2)[C@H]1[C@H](COC(=O)COCc1ccccc1)OCc1ccccc1
Measured On: OVCAR-5 ovarian
Inequality Symbol: >
Reported Result: 100
//
Compound: COC(=O)C1=C(C)NC(C)=C(C(=O)OC)C1c1cccc(N=O)c1
Measured On: OVCAR-5 ovarian
Inequality Symbol: =
Reported Result: 32.3
//
Compound: Nc1cc2c3c(cccc3c1)NC2=O
Measured On: OVCAR-5 ovarian
Inequality Symbol: >
Reported Result: 100
//
Compound: O=C1NC(=S)NC(=O)C1C(c1ccc(Cl)cc1)C1C(=O)NC(=S)NC1=O
Measured On: OVCAR-5 ovarian
Inequality Symbol: >
Reported Result: 100
